Target: T1, CD3ε homodimer protein (human, UniProt P07766 23-126, limits assumed, sulfo-tag or biotin label in some ECL assays)
T1 construct: also called human CD3ε homodimer protein; CD3 (CD3ε)
T1 sequence (P07766 23-126 limits assumed): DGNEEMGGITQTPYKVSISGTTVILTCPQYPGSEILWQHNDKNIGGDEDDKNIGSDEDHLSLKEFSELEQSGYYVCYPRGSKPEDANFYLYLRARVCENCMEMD
Assay: SPR, CD3ε homodimer on chip;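 further: biacore SPR with antibody variants flowed as analyte over amine-coupled CD3ε homodimer on a CM chip, bound amount of each single-residue H chain variant over that of parent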
measurement-label: ratio of amounts bound vs CE115HA000
I'd appreciate a reply containing only the number, no unit.

Look up ratio of amounts bound vs CE115HA000 for this binder: CE115HA000 E61P (antibody, name in Kabat numbering, V domains shown) VH: QVQLVESGGGVVQPGRSLRLSCAASGFTFSNAWMHWVRQAPGKGLEWVAQIKAKSNNYATYYAPSVKGRFTISRDDSKNSLYLQMNSLKTEDTAVYYCRYVHYGAYYGVDAWGQGTTVTVSS VL: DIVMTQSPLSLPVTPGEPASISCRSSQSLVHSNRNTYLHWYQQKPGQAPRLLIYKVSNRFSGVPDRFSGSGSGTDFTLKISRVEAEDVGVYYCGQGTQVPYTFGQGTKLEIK
1.07

Now the binder CE115HA000 Y100aH (antibody, name in Kabat numbering, V domains shown) VH: QVQLVESGGGVVQPGRSLRLSCAASGFTFSNAWMHWVRQAPGKGLEWVAQIKAKSNNYATYYAESVKGRFTISRDDSKNSLYLQMNSLKTEDTAVYYCRYVHYGAYHGVDAWGQGTTVTVSS VL: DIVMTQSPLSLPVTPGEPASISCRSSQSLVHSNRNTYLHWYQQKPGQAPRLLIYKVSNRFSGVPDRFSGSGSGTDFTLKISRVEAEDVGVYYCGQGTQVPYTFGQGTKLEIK
0.9

Likewise for CE115HA000 T28D (antibody, name in Kabat numbering, V domains shown) VH: QVQLVESGGGVVQPGRSLRLSCAASGFDFSNAWMHWVRQAPGKGLEWVAQIKAKSNNYATYYAESVKGRFTISRDDSKNSLYLQMNSLKTEDTAVYYCRYVHYGAYYGVDAWGQGTTVTVSS VL: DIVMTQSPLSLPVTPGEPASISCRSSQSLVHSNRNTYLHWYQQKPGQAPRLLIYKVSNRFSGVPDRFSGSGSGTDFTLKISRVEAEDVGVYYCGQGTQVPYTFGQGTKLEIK ?
0.56
